Give measured melting point for each item. Keep answers brief.

What the record says about NC(=NO)c1nn(-c2c(Cl)cc(C(F)(F)F)cc2Cl)c(N)c1S(=O)C(F)(F)F (stereo not given) : melting point is 203 to 205 °C

What the record says about C[C@@H]1S[C@@H](C(=O)Nc2ccc(CN3C(=O)CSC3=O)cc2)Cc2cc3c(cc2C1=O)OCO3 : melting point is 232 to 235 °C

What the record says about CCOC(=O)C1=C2NCCN2C(C)=C(C(=O)OC)C1c1ccccc1[N+](=O)[O-] (stereo not given) : melting point is 185 °C

What the record says about CC(C)n1c(C=O)c(-c2ccc(F)cc2)c(-c2ccccc2)c1C(=O)O : melting point is 219 to 220 °C

What the record says about CC(C)c1ccc2c(c1)c(-c1ccccc1Cl)c(NC(=O)Nc1cccc(C(F)(F)F)c1)c(=O)n2C : melting point is 209 to 210 °C

What the record says about Cc1cccc(-c2csc(N3CCN(C(=O)Nc4cccnc4)CC3)n2)c1 : melting point is 157 to 158 °C

What the record says about CCCc1cc(C(O)=S)cc(N)c1Oc1ccccc1 : melting point is 136 to 138 °C

What the record says about COCCc1sc2ncnc(N)c2c1-c1ccc(N(C(N)=O)c2ccccc2C)cc1 : melting point is 217 to 219 °C

What the record says about CCCCCCCCCCCP(=O)(c1ccccc1)c1ccccc1 : melting point is 69 °C

What the record says about O=C(Nc1ccc(C(F)(F)F)cc1)C1CC(c2ccc(F)cc2)N(c2ccc(Cl)cc2)N1 (stereo not given) : melting point is 50 to 55 °C

What the record says about CC(=O)c1c(-c2ccccc2)n(C)c2ccccc12 : melting point is 76 to 77 °C

What the record says about CN(C(=O)CCl)C1(c2ccccc2)Cc2ccccc2C1 : melting point is 134 to 137 °C

What the record says about CCSc1cccc(C)c1S(=O)(=O)NC(C)(C)C : melting point is 94 °C

What the record says about NC(=S)NN=C(CCCCl)c1ccccc1 : melting point is 128 to 130 °C

What the record says about CCCCCCC1C(=O)NC(C(=O)SC2CCCCC2)(C(O)C2C=CCCC2)C1(C)O (stereo not given) : melting point is 85 °C

What the record says about CC(c1ccnc(C#N)c1)C(O)(Cn1cncn1)c1ccc(F)cc1F (stereo not given) : melting point is 188 to 189 °C

What the record says about CCS(=O)CC(=C1NCCCS1)[N+](=O)[O-] (stereo not given) : melting point is 102 to 104 °C

What the record says about COC1=C(OC)C(=O)C(CCCCC[C@H]2CC[C@H](O)CC2)=C(C)C1=O : melting point is 49 to 51 °C

What the record says about CCOC(=O)C(=CNc1ccc(F)c(Cl)c1)C(=O)c1ccccc1Cl : melting point is 96 to 102 °C

What the record says about C[C@H]1C=CC(S(=O)(=O)c2ccccc2)=C[C@H](C)[C@H]1O[Si](C)(C)C(C)(C)C : melting point is 81.6 to 83.6 °C

====

Give measured melting point for each item. Keep answers brief.

What the record says about CCCCC1CCC2NC(=O)CC2C1 (stereo not given) : melting point is 109 to 111 °C

What the record says about O=C(O)COc1cccc2c1CCc1sc(S(=O)(=O)CC(c3ccccc3)c3ccccc3)nc1-2 : melting point is 168 to 170 °C

What the record says about O=C(c1ccccc1)C1CCN(CC2CN(c3ccccc3)C(=O)O2)CC1 (stereo not given) : melting point is 104 to 105 °C

What the record says about Cc1noc(NS(=O)(=O)c2nccs2)c1Cl : melting point is 171 to 173 °C

What the record says about O=C(O)CCCCCc1nc2ccccc2o1 : melting point is 82 °C

What the record says about c1ccc(C(Cn2cncn2)c2ccccc2)cc1 : melting point is 107 to 108 °C

What the record says about O=C(O)C1Cc2c([nH]c3ccccc23)CN1C(=S)SCc1ccc([N+](=O)[O-])cc1 (stereo not given) : melting point is 194 to 195 °C

What the record says about Cc1ccc2cccc(OCc3c(Cl)ccc(S(=O)(=O)n4cccc4)c3Cl)c2n1 : melting point is 216 to 217 °C

What the record says about CCCN1CCC(c2c[nH]c3ccc(NS(C)(=O)=O)cc23)CC1 : melting point is 87 to 90 °C

What the record says about CCn1nc2c(N)nc3ccccc3c2c1CC(C)C : melting point is 208 to 209 °C

====

readout_type: melting point

What the record says about CCOC(=O)CCC1NC(=O)CN1Cc1ccccc1 (stereo not given) : melting point is 60 to 62 °C

What the record says about Oc1ccc(-c2ncco2)cc1 : melting point is 167 to 168 °C

What the record says about CCOC(=O)N1CCC(n2nc(Cc3ccc(F)cc3)c3ccccc3c2=O)CC1 : melting point is 151 to 152 °C

What the record says about CON(C)C(=O)c1c(COC2CCCCO2)noc1-c1ccccc1Cl (stereo not given) : melting point is 51 to 56 °C

What the record says about COc1ccc(OCC(O)CN2CCC(Nc3nc4ccccc4n3Cc3ccc(F)cc3)CC2)cc1 (stereo not given) : melting point is 174 °C

====

readout_type: melting point

What the record says about COC(=O)c1cnn(-c2c(Cl)cc(Cl)cc2Cl)c1N : melting point is 179 to 180 °C

What the record says about CCOC(=O)c1c[nH]c2oc3ccccc3c(=O)c2c1=O : melting point is 174 to 175 °C

What the record says about NC(=O)CN1C(=O)[C@@H](NC(=O)c2ccccc2)[C@H](c2ccccc2)Sc2ccccc21 (relative stereo) : melting point is 246 to 248 °C

What the record says about CSc1ncc2cc(Oc3ccccc3F)c(=O)n(C)c2n1 : melting point is 234 to 236 °C

What the record says about CCOCc1nc2c(N)nc3cc(-c4cccnc4)cnc3c2n1CC(C)C : melting point is 177 to 179 °C

What the record says about CON=C(C(=O)O)c1cc2sccc2s1 : melting point is 116 to 117 °C

What the record says about COc1ccc2c(c1)C(CCCNC(C)=O)CCC2 (stereo unspecified) : melting point is 71 to 73 °C

What the record says about CCN(CC)CCCNc1nc(Cl)nc(NCCCN(CC)CC)n1 : melting point is 119 °C

What the record says about Cc1ccsc1C=Cc1nccn1C : melting point is 287 to 288 °C

What the record says about CCCCCCCCSCCSc1nc(N)n[nH]1 : melting point is 85 to 86 °C

What the record says about CC(=O)Nc1cc([N+](=O)[O-])ccc1OCCCN : melting point is 110 to 120 °C

====

Give measured melting point for each item. Keep answers brief.

What the record says about N=C(Nc1ccccc1-c1ccccc1)N1CCC(=NO)CC1 : melting point is 175 to 176 °C

What the record says about O=C1c2ccccc2C(=O)N1CCc1cn2ccccc2n1 : melting point is 181 to 182 °C

What the record says about Cc1nnc(-c2nsc3ccc([N+](=O)[O-])cc23)o1 : melting point is > 250 °C

What the record says about COc1ccc(CCNS(=O)(=O)Cc2ccc3[nH]cc(CC#N)c3c2)cc1 : melting point is 134 to 135 °C

What the record says about CNC(=S)C1(c2cccnc2)CCCCC1NOCCO (stereo unspecified) : melting point is 142 to 145 °C

What the record says about O=C(c1ccccc1)c1ccc2c(c1)C1(c3ccccc3-2)c2ccccc2-c2ccc(C(=O)c3ccccc3)cc21 : melting point is 260 to 261 °C

What the record says about N#Cc1cc(=O)cc(-c2ccccc2)o1 : melting point is 146 to 149 °C

What the record says about COc1ccc(C(O)(Cc2ccncc2)c2ccccc2)c2c1OC(C)(C)C2 (stereo unspecified) : melting point is 78 to 81 °C

What the record says about COC(=O)C1(C(=O)OC)Cc2cc(Br)ccc2N1 : melting point is 113 to 155 °C

What the record says about O=C(COc1cccc(C(=O)O)c1)NCCNC(=O)COc1cccc(C(=O)O)c1 : melting point is 282 °C

What the record says about O=C(C[C@@H](CCCC1CCCCC1)c1nc(CNC2CCCCC2)no1)NO : melting point is 127 °C

What the record says about O=C(c1ccccc1)c1cc([N+](=O)[O-])ccc1O : melting point is 125 to 126 °C

What the record says about CCCCCCCCCCN1C(=O)C=CC1=O : melting point is 48 to 49 °C

What the record says about NNc1ccc(S(N)(=O)=O)cc1 : melting point is 169 to 171 °C

What the record says about CC(C)CNC(=S)Nc1cccc(NC(=O)Nc2ccc(Cl)cc2)c1 : melting point is 195 to 196 °C

What the record says about CNS(=O)(=O)Cc1ccc2c(c1)c(CC#N)cn2Cc1ccccc1 : melting point is 133 to 135 °C

What the record says about C[N+]1([O-])CC(c2ccccn2)C(=O)c2cc(Cl)ccc21 (stereo unspecified) : melting point is 135 to 137 °C

What the record says about CN(C)C(=O)C(OCc1ccc(-c2ccc(Cl)cc2)cc1)C(F)(F)F (stereo unspecified) : melting point is 103 to 107 °C

What the record says about c1ccc(C2=c3cc4c(cc3Oc3ccccc32)=C(c2ccccc2)c2ccccc2O4)cc1 : melting point is 419 °C

What the record says about NC(=O)c1sc2nccc(N3CCN(c4ccccn4)CC3)c2c1N : melting point is 266 to 270 °C

What the record says about CC(=CC#N)Cn1sc2ccccc2c1=O : melting point is 128 to 130 °C
